- target_of_assay: Histamine H3 receptor (Rattus norvegicus, UniProt Q9QYN8)
- Sequence (Q9QYN8 whole entry): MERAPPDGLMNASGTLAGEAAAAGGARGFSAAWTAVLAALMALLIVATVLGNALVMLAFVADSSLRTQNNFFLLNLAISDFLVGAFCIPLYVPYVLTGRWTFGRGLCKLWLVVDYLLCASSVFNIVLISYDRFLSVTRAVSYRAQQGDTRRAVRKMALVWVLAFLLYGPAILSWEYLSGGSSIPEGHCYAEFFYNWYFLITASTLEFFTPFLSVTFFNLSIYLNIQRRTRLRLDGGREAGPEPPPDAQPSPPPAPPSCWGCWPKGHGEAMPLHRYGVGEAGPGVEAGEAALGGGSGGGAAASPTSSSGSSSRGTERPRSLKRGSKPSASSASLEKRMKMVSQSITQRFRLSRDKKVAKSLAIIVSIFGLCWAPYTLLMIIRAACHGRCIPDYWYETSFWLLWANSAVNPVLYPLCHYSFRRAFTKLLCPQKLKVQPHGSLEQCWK
property_measured: Ki (nM)
Field format: number, assumed nM, no unit text.

QUERY: // Ki lookup, key: N#Cc1cccc(Oc2ccc(C(=O)N3CCCN(C4CCC4)CC3)cn2)c1
RESULT: 11

###

Please provide measured bioavailability for the entries that follow.
- experiment: Bioavailability in Sprague-Dawley rat at 1 mg/kg, iv and 10 mg/kg, po
- Format: ADME, organism-based
- test_context: in vivo
Write the value in % as a bare number.

QUERY: // bioavailability lookup, key: O=C(c1ccc(Oc2ccc(Cl)cc2)nc1)N1CCCN(C2CCC2)CC1
RESULT: 62

QUERY: Entry to check: N#Cc1cccc(Oc2ccc(C(=O)N3CCCN(C4CCC4)CC3)cn2)c1
RESULT: 89

QUERY: Moving on to the next compound: O=C(c1ccc(Oc2ccc(F)cc2)nc1)N1CCCN(C2CCC2)CC1
RESULT: 50

QUERY: Param item: O=C(c1ccc(Oc2cccc(Cl)c2)nc1)N1CCCN(C2CCC2)CC1
RESULT: 19

QUERY: What do you get for O=C(c1ccc(Oc2ccc(F)cc2)cn1)N1CCCN(C2CCC2)CC1 ?
RESULT: 23

QUERY: And what about the compound O=C(c1ccc(Oc2cccc(F)c2)nc1)N1CCCN(C2CCC2)CC1 ?
RESULT: 11

Hey, just so you know, these numbers are from ChEMBL document CHEMBL1177792.
